Each item that follows carries a reported protein stability index.
B1: KLHL14 (parent)
chain: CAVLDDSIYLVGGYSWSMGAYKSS

Variants of: B1
Assay: protein stability index of a GFP-peptide fusion (GPS, HEK-293T) (PSI 1-6); higher = more stable;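 further: lentivirally expressed fusions sorted by FACS into six bins by GFP to DsRed ratio, PSI derived from sequencing read proportions per bin multiplied by bin number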
Settings: c terminus: a fixed tail appended
Respond using a number only.

Known protein stability index results, listed for orientation:
mut=S24A observed_result=4.41
mut=Y21S observed_result=2
mut=A2G observed_result=1.04
mut=S24E observed_result=2.32
mut=C1P observed_result=2.28
mut=A20H observed_result=2.31

Would you kindly look at the next entry?
What measured protein stability index goes with A2S ?
1.59
